Test: AP1 Signaling Pathway (AID 357); note: % is set by controls: 0 for no effect and ±100 for the full control effect
Conditions: ME-180 (cervical carcinoma) AP-1-bla reporter, EGF-induced, beta-lactamase ratio, 5 h; at 7.69 µM (top of the series) unless noted
Method: NCGC Assay Overview: Activator protein-1 (AP-1), a transcription factor, plays an important role in tumor genesis by regulating genes involved in cell proliferation, differentiation, apoptosis, and angiogenesis. AP-1 activity is induced by a complex network of signaling pathways that involves extracellular signals, such as growth factors. […] Library compounds were measured for their ability to modulate positively or negatively the action of EC50 EGF on reporter gene activity. […]
Records with an inconclusive call do not appear. Activity calls are given as the source filed them. Calls come from the whole dose curve; as a rule, active = well fitted curve in either direction with a large enough effect (not every such curve was filed as active); inconclusive = small, poorly fitted or top-dose-only effect, or another doubt; inactive = flat fitted curve, though single readings scatter.
measure name: activity change, negative = inhibition

Below: 9 molecules and their reported activity change, negative = inhibition.
Identify measured activity change, negative = inhibition corresponding to `O=C(CC(=O)c1ccncc1)c1ccccc1` 4.49% (inactive)

// Input: `Cc1cc(=O)oc2c(OS(C)(=O)=O)c(OS(C)(=O)=O)ccc12` . Output its activity change, negative = inhibition only. -3.34% (inactive)

Determine from records and report activity change, negative = inhibition for `N[C@@H](C(=O)O)[C@@H]1C[C@H]1C(=O)O` -6.47% [at 38 µM] (inactive)

Give the measured activity change, negative = inhibition for `COc1cc(NCC[C@@H]2CCCCN2)c2ncccc2c1` 28.5% (inactive)

Specify measured activity change, negative = inhibition for `NC(N)=Nc1ccc(-c2ccc(N=C(N)N)cc2)cc1` . 1.56% (inactive)

Provide only the value of recorded activity change, negative = inhibition for `C[C@@]12CC[C@@H]3[C@H](CCC4=CC(=O)CC[C@]43C)[C@@H]1CC[C@@H]2C(=O)Cn1cnc2c(=S)nc[nH]c21` 2.82% (inactive)

Entry `OCCNc1ncnc2c1ncn2[C@@H]1O[C@@H](CO)[C@H](O)[C@@H]1O` needs its activity change, negative = inhibition filled in; supply it. 3.21% (inactive)

Tell me activity change, negative = inhibition reported for `C[C@H](CCC(=O)NN)[C@@H]1CC[C@@H]2[C@H]3CC[C@H]4C[C@@H](O)CC[C@@]4(C)[C@@H]3CC[C@]21C` 12.8% (inactive)

For the molecule `O=C1CSC(=S)N1/N=C\c1ccc(Cl)c([N+](=O)[O-])c1` , give its reported activity change, negative = inhibition. 1.11% (inactive)

Let us examine a further case.
For the molecule `Cc1nc2cnc(Oc3cccc(Cl)c3)nc2n(C[C@H]2CCCO2)c1=O` , give its measured activity change, negative = inhibition value. -15.8% (inactive)
